target: MS2 coat protein, dlFG mutant (Escherichia phage MS2, UniProt P03612, del68-81insG); test: 4 mM Mg2+; no ligand; RNA-MaP array; 100 mM Tris-HCl pH 7.5, 80 mM KCl, 4 mM MgCl2, 0.1 mg/mL BSA, 1 mM DTT, 0.01 mg/mL yeast tRNA, 0.01% Tween-20; protein 1.5 nM to 3 uM; 37 C (Table S3); details: chain copies: 2; label: tethered by stalled RNA polymerase
property_name: Kd

# example entries with known answers
binder	value
Eterna 7736465 (Same State - FMN A) (ssRNA) RNA: UUUCUUUUCUUUUGCGAUCCUAUCCCUUAUAAGGAUAUCUAGAAAUAGAGAAGGUAUGCAGUGAUGUUGCUUGGGAUAGGAUCGC	> 3000 nM
Eterna 7700218 (Same State - Theophylline A) (ssRNA) RNA: UGGUUAAGCAGUGAUGUUGCAAGUGAUGAUACCAGUUAAGAAGAGAACCCUUGGCAGCAUAAAGUGCGCUCUGAUGAGUGUGCUU	> 3000 nM

Next up:
Return the recorded Kd value; entry: UUUGGGCAGUGAUGUUGCCCCUUU (ssRNA) [Eterna 7 (K4-TR_control)] > 3000 nM
